- Experimental Target: NL20 human bronchial epithelial cells expressing human Z-AAT (Homo sapiens (Human), UniProt P01009, E366K)
- Sequence (P01009 25-418 E366K limits assumed): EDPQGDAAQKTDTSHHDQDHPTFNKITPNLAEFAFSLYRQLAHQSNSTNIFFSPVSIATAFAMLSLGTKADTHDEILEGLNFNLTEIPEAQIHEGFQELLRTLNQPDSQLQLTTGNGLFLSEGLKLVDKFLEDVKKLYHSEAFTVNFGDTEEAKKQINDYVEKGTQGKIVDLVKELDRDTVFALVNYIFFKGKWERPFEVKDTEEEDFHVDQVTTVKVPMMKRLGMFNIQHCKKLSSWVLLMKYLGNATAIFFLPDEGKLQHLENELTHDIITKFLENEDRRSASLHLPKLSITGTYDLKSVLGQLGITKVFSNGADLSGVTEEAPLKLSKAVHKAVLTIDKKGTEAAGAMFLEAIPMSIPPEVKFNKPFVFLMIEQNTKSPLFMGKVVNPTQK
- Assay Overview: AAT Function Assay (MSD Assay NL20-SI Cell Line)
- Measurement Parameters: functionally active AAT (AAT-hNE complex, MSD) in supernatant of NL20 cells expressing human Z-AAT; read-out: NL20 Functional EC50
pEC50: −log10 of the molar value.
Readout: pEC50

| Molecule | Readout | Recorded Measurement |
| --- | --- | --- |
| Cc1cc(-n2c(C(C)C)c([C@@H]3C[C@H]3C(=O)O)c3cc(O)ccc32)ccc1F [Compound 135] | pEC50 | < 5.70 |

## Task Name the recorded pEC50 of the molecule listed here: O=C(O)[C@H]1CC2(C1)C[C@H](c1c(C3CCOCC3)n(-c3ccc(F)c(F)c3)c3ccc(O)cc31)C2 (some centres unmarked) [Compound 42]
## Result 5.70 to 6.30

## Task Please look at this molecule and report its pEC50: Cc1cc(-n2c(C(C)C)c(CCC(=O)O)c3cc(O)ccc32)ccc1F [Compound 122]
## Result 5.70 to 6.30

## Task Report pEC50, nothing else, for this molecule: Cc1cc(-n2c([C@H]3CCCO3)c([C@H]3C[C@@H]3C(=O)O)c3cc(O)ccc32)ccc1F [Compound 126]
## Result < 5.70
